- targetOrSystem: T1, P6-AA-1HAA-N
- T1 chain: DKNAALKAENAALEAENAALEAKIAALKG
- assayInfo: two-hybrid library CCmax;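 note: natural log of median RNA to DNA barcode read ratio; higher means stronger binding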
- conditionLabel: mean of both orientations
Property: interaction score; scope: individual binders

// below: answered binders
{"columns": ["binder", "interaction score"],
 "data": [
  ["DENAALEAKKAALKAKNAALKAEIAALEG [P5-AA-1HAA-K]", 1.41],
  ["DENAALEAKLAALKAKLAALKAEIAALEG [P5-AA-12HAA-L]", -0.665],
  ["DENAALEAKVAALKAKNAALKAEIAALEG [P5-AA-1HAA-V]", 1.42],
  ["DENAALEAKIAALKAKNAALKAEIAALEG [4H1401-AA]", 1.57],
  ["DENAALEAKHAALKAKHAALKAEIAALEG [P5-AA-12HAA-H]", 0.14],
  ["DENAALEAKYAALKAKYAALKAEIAALEG [P5-AA-12HAA-Y]", -0.0879],
  ["DENAALEAKKAALKAKKAALKAEIAALEG [P5-AA-12HAA-K]", -1.37],
  ["DENAALEAKAAALKAKAAALKAEIAALEG [P5-AA-12HAA-A]", -1.39],
  ["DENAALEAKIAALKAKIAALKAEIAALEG [4H1385-AA]", -0.2],
  ["DENAALEAKDAALKAKNAALKAEIAALEG [P5-AA-1HAA-D]", -1.12]
]}

Find the recorded interaction score belonging to DENAALEAKSAALKAKSAALKAEIAALEG [P5-AA-12HAA-S] and report it.
-1.02

Quick one: DENAALEAKRAALKAKRAALKAEIAALEG [P5-AA-12HAA-R]
0.341

Quick one: DENAALEAKSAALKAKNAALKAEIAALEG [P5-AA-1HAA-S]
0.913

Quick one: DENAALEAKTAALKAKNAALKAEIAALEG [P5-AA-1HAA-T]
0.702

Quick one: DENAALEAKYAALKAKNAALKAEIAALEG [P5-AA-1HAA-Y]
1.76

Quick one: DENAALEAKTAALKAKTAALKAEIAALEG [P5-AA-12HAA-T]
-1.49

Quick one: DENAALEAKAAALKAKNAALKAEIAALEG [P5-AA-1HAA-A]
0.981

Quick one: DENAALEAKVAALKAKVAALKAEIAALEG [P5-AA-12HAA-V]
-0.708

Quick one: DENAALEAKLAALKAKNAALKAEIAALEG [P5-AA-1HAA-L]
1.66

Quick one: DENAALEAKHAALKAKNAALKAEIAALEG [P5-AA-1HAA-H]
1.97

Quick one: DENAALEAKEAALKAKNAALKAEIAALEG [P5-AA-1HAA-E]
-0.649
